All values here come from ChEMBL document CHEMBL5543142.

# Test system: Acinetobacter baumannii
# Experiment: Antibacterial activity against OXA-23 producing multidrug-resistant Acinetobacter baumannii clinical isolate 15-4 assessed as inhibition of bacterial growth incubated for 18 to 20 hrs by two fold serial dilution assay
# Assay type: functional
# Stated Conditions: time 18-20 hrs
Recorded Metric: MIC (µg/mL)
Numbers only; they are read as µg/mL.

Tell me its MIC given `Nc1nc(/C(=N/OC2(C(=O)O)CCC2)C(=O)N[C@@H]2C(=O)N3C(C(=O)O)=C(CSCCNC(=O)c4ccc(O)c(O)c4Cl)CS[C@H]23)cs1.O=C(O)C(F)(F)F` as the entry.
32

Tell me its MIC given Cc1sc(N)nc1/C(=N/OC(C(=O)O)C1CCC(F)(F)CC1)C(=O)N[C@@H]1C(=O)N2C(C(=O)O)=C(CSCCNC(=O)c3ccc(O)c(O)c3Cl)CS[C@H]12.O=C(O)C(F)(F)F (stereo partly specified) as the entry.
4

Tell me its MIC given Nc1nc(/C(=N/OC(C(=O)O)C2CCOCC2)C(=O)N[C@@H]2C(=O)N3C(C(=O)O)=C(CSCCNC(=O)c4ccc(O)c(O)c4Cl)CS[C@H]23)cs1.O=C(O)C(F)(F)F (stereo partly specified) as the entry.
32

Tell me its MIC given `C[C@@](O/N=C(\C(=O)N[C@@H]1C(=O)N2C(C(=O)O)=C(CSCCNC(=O)c3ccc(O)c(O)c3Cl)CS[C@H]12)c1csc(N)n1)(C(=O)O)C(F)(F)F.O=C(O)C(F)(F)F` as the entry.
16

Tell me its MIC given `CC(C)(O/N=C(\C(=O)N[C@@H]1C(=O)N2C(C(=O)O)=C(CSCCCNC(=O)c3ccc(O)c(O)c3Cl)CS[C@H]12)c1csc(N)n1)C(=O)O.O=C(O)C(F)(F)F` as the entry.
64

Tell me its MIC given Nc1nc(/C(=N/OC(C(=O)O)C2CCC(C(F)(F)F)CC2)C(=O)N[C@@H]2C(=O)N3C(C(=O)O)=C(CSCCNC(=O)c4ccc(O)c(O)c4Cl)CS[C@H]23)cs1.O=C(O)C(F)(F)F (stereo partly specified) as the entry.
8

Tell me its MIC given Nc1nc(/C(=N/OC(C(=O)O)C2CCC(F)(F)CC2)C(=O)N[C@@H]2C(=O)N3C(C(=O)O)=C(CSCCNC(=O)c4ccc(O)c(O)c4Cl)CS[C@H]23)c(Cl)s1.O=C(O)C(F)(F)F (stereo partly specified) as the entry.
8

Tell me its MIC given `CC(C)(O/N=C(\C(=O)N[C@@H]1C(=O)N2C(C(=O)O)=C(CSCCOCCNC(=O)c3ccc(O)c(O)c3Cl)CS[C@H]12)c1csc(N)n1)C(=O)O.O=C(O)C(F)(F)F` as the entry.
64

Tell me its MIC given CC1CCC(C(O/N=C(\C(=O)N[C@@H]2C(=O)N3C(C(=O)O)=C(CSCCNC(=O)c4ccc(O)c(O)c4Cl)CS[C@H]23)c2csc(N)n2)C(=O)O)CC1.O=C(O)C(F)(F)F (stereo partly specified) as the entry.
4

Tell me its MIC given Nc1nc(/C(=N/OC(C(=O)O)C2CCS(=O)(=O)CC2)C(=O)N[C@@H]2C(=O)N3C(C(=O)O)=C(CSCCNC(=O)c4ccc(O)c(O)c4Cl)CS[C@H]23)cs1.O=C(O)C(F)(F)F (stereo partly specified) as the entry.
4

Tell me its MIC given `Nc1nc(/C(=N/OC2(C(=O)O)CC2)C(=O)N[C@@H]2C(=O)N3C(C(=O)O)=C(CSCCNC(=O)c4ccc(O)c(O)c4Cl)CS[C@H]23)cs1.O=C(O)C(F)(F)F` as the entry.
64

Tell me its MIC given CC(C)C(O/N=C(\C(=O)N[C@@H]1C(=O)N2C(C(=O)O)=C(CSCCNC(=O)c3ccc(O)c(O)c3Cl)CS[C@H]12)c1csc(N)n1)C(=O)O.O=C(O)C(F)(F)F (stereo partly specified) as the entry.
4

Tell me its MIC given Nc1nc(/C(=N/OC(C(=O)O)C2CCCC2)C(=O)N[C@@H]2C(=O)N3C(C(=O)O)=C(CSCCNC(=O)c4ccc(O)c(O)c4Cl)CS[C@H]23)cs1.O=C(O)C(F)(F)F (stereo partly specified) as the entry.
16

Tell me its MIC given Nc1nc(/C(=N/OC(C(=O)O)C2CCCCC2)C(=O)N[C@@H]2C(=O)N3C(C(=O)O)=C(CSCCNC(=O)c4ccc(O)c(O)c4Cl)CS[C@H]23)cs1.O=C(O)C(F)(F)F (stereo partly specified) as the entry.
8

Tell me its MIC given Nc1nc(/C(=N/OC(C(=O)O)C2CCC2)C(=O)N[C@@H]2C(=O)N3C(C(=O)O)=C(CSCCNC(=O)c4ccc(O)c(O)c4Cl)CS[C@H]23)cs1.O=C(O)C(F)(F)F (stereo partly specified) as the entry.
32

Tell me its MIC given CC(C)(C)C1CCC(C(O/N=C(\C(=O)N[C@@H]2C(=O)N3C(C(=O)O)=C(CSCCNC(=O)c4ccc(O)c(O)c4Cl)CS[C@H]23)c2csc(N)n2)C(=O)O)CC1.O=C(O)C(F)(F)F (stereo partly specified) as the entry.
8

Tell me its MIC given `CC(C)(O/N=C(\C(=O)N[C@@H]1C(=O)N2C(C(=O)O)=C(CS[C@H]3CC[C@@H](NC(=O)c4ccc(O)c(O)c4Cl)CC3)CS[C@H]12)c1csc(N)n1)C(=O)O.O=C(O)C(F)(F)F` as the entry.
32

Tell me its MIC given CC(C)(C)C(O/N=C(\C(=O)N[C@@H]1C(=O)N2C(C(=O)O)=C(CSCCNC(=O)c3ccc(O)c(O)c3Cl)CS[C@H]12)c1csc(N)n1)C(=O)O.O=C(O)C(F)(F)F (stereo partly specified) as the entry.
1

Tell me its MIC given `CC(C)(O/N=C(\C(=O)N[C@@H]1C(=O)N2C(C(=O)O)=C(CSCCNC(=O)c3ccc(O)c(O)c3Cl)CS[C@H]12)c1csc(N)n1)C(=O)O.O=C(O)C(F)(F)F` as the entry.
32

Tell me its MIC given CC(C)(C)C(O/N=C(\C(=O)N[C@@H]1C(=O)N2C(C(=O)O)=C(CS[C@H]3CC[C@@H](NC(=O)c4ccc(O)c(O)c4Cl)CC3)CS[C@H]12)c1csc(N)n1)C(=O)O.O=C(O)C(F)(F)F (stereo partly specified) as the entry.
4
